Where do these numbers come from? They come from patent US11718628B2.

# measurement-protocol: In vivo pharmacokinetic properties in mice (IV and PO)
# Set-up: species or system C57BL/6J mice
# assay-setup: C57BL/6J, mouse, in vivo, iv, 2 mg/kg
readout-label: Vd

• O=C(c1ccc(-c2cncc(-c3ccnc4c3OCCO4)c2)c(Cl)c1)N1CCC(O)CC1 = 8.91 L/kg

---

# measurement-protocol: In vivo pharmacokinetic properties in mice (IV and PO)
# Set-up: species or system C57BL/6J mice
# assay-setup: C57BL/6J, mouse, in vivo, iv, 2 mg/kg
# Experimental: The in vivo pharmacokinetic properties of compounds by both intravenous and oral administration were evaluated in male Sprague Dawley rats or C57BL/6J mice. Animals were housed in cages with clean bedding. Certified rodent diet was provided. […] […] The concentration of compound in the plasma of the animals was evaluated at 0.25, 0.5, 1, 2, 4, 6, 8, 12 and 24 hr by taking blood samples from the cannulated jugular vein (rats) or through a capillary, guided in retro-orbital plexus (mice).
readout-label: AUC(0-t) (ng·h/mL)

* O=C(c1ccc(-c2cncc(-c3ccnc4c3OCCO4)c2)c(Cl)c1)N1CCC(O)CC1 | 1540

---

# measurement-protocol: In vivo pharmacokinetic properties in mice (IV and PO)
# Set-up: species or system C57BL/6J mice
# assay-setup: mouse, in vivo
readout-label: % F (Bioavailability of oral delivery) (%)

• CC(C)(C)c1cc(-c2cncc(-c3c(Cl)cc(C(=O)N4CCC(O)CC4)cc3Cl)c2)ccn1 = 82
• CC(C)OC(=O)Nc1ccc(-c2cncc(-c3ccnc(C(C)(C)C)c3)c2)c(Cl)c1 = 16
• CC1(O)CCN(C(=O)c2ccc(-c3cncc(-c4ccnc(C(C)(C)C)c4)c3)c(Cl)c2)CC1 = 33
• CC(C)(C)c1cc(-c2cncc(-c3ccc(C(=O)N4CCC(O)CC4)cc3Cl)c2)ccn1 = 58

---

# measurement-protocol: Log D by octanol/aqueous buffer partitioning
# Format: physicochemical
# assay-setup: pH 7.4, 1-octanol/buffer
Parameter LogD: see the listing below.
readout-label: LogD

- Cc1cc(C(=O)N2CCC(O)CC2)ccc1-c1cncc(-c2ccnc(C(C)(C)C)c2)c1: 3.36
- CC(C)(C)c1cc(-c2cncc(-c3ccc(C(=O)N4CCC(O)CC4)cc3Cl)c2)ccn1: 3.56
- CC1(O)CCN(C(=O)c2ccc(-c3cncc(-c4ccnc(C(C)(C)C)c4)c3)c(Cl)c2)CC1: 3.76
- CC(C)(C)c1cc(-c2cccc(-c3ccc(C(=O)N4CCC(O)CC4)cc3Cl)c2)ccn1: 4.12
- CC(C)OC(=O)Nc1ccc(-c2cncc(-c3ccnc(C(C)(C)C)c3)c2)c(Cl)c1: 4.12

---

# measurement-protocol: Half-life in mouse liver microsomes
# Assay type: in vitro ADME
# assay-setup: mouse, liver microsomes, read-out: H: half-life of mouse liver microsomes
Decide using half-life at 1 µM: a value greater than or equal to 1 h is rule met, a smaller one is rule not met.

* CC(C)(C)c1cc(-c2cc(F)cc(-c3ccc(C(=O)N4CCC(O)CC4)cc3Cl)c2)ccn1 | rule not met
* CC(C)(C)c1cc(-c2cncc(-c3ccc(C(=O)N4CCC(F)C(O)C4)cc3Cl)c2)ccn1 (stereo not drawn) | rule not met
* CC(C)OC(=O)Nc1ccc(-c2cncc(-c3ccnc(C(C)(C)CO)c3)c2)c(Cl)c1 | rule met
* CC(C)(C)c1cc(-c2cncc(-c3ccc(C(=O)N4CCC[C@@H]4C(C)(C)O)cc3Cl)c2)ccn1 | rule met
* CC(C)(C)c1cc(-c2cccc(-c3ccc(C(=O)N4CCC(O)CC4)cc3Cl)c2F)ccn1 | rule not met
* CS(=O)(=O)Nc1ccc(-c2cncc(-c3ccnc(C4CC4)c3)c2)c(Cl)c1 | rule met
* O=C(c1ccc(-c2cncc(-c3ccnc(C4(O)CCC4)c3)c2)c(Cl)c1)N1CCC(O)CC1 | rule met
* COc1ncc(-c2ccc(C(=O)N3CCC(O)CC3)cc2Cl)cc1-c1ccnc(C(C)(C)C)c1 | rule not met
* CC(C)(C)c1cc(-c2cncc(-c3ccc(C(=O)N4CCC(O)CC4)cc3)c2F)ccn1 [drawing 321] | rule met

---

# measurement-protocol: In vivo pharmacokinetic properties in mice (IV and PO)
# Design: species or system C57BL/6J mice
# assay-setup: C57BL/6J, mouse, in vivo, po, 3 mg/kg
# Description: The in vivo pharmacokinetic properties of compounds by both intravenous and oral administration were evaluated in male Sprague Dawley rats or C57BL/6J mice. Animals were housed in cages with clean bedding. Certified rodent diet was provided. […] […] The concentration of compound in the plasma of the animals was evaluated at 0.25, 0.5, 1, 2, 4, 6, 8, 12 and 24 hr by taking blood samples from the cannulated jugular vein (rats) or through a capillary, guided in retro-orbital plexus (mice).
readout-label: half-life

* O=C(c1ccc(-c2cncc(-c3ccnc4c3OCCO4)c2)c(Cl)c1)N1CCC(O)CC1 | 3.51 h

---

# measurement-protocol: In vivo pharmacokinetic properties in mice (IV and PO)
# Design: species or system C57BL/6J mice
# assay-setup: C57BL/6J, mouse, in vivo, po, 3 mg/kg
readout-label: Tmax (min)

- O=C(c1ccc(-c2cncc(-c3ccnc4c3OCCO4)c2)c(Cl)c1)N1CCC(O)CC1: 15

---

Parameter Liver ng/mg (6 h): see the listing below.
# measurement-protocol: Plasma and liver compound levels in mice after oral administration
# Assay type: in vivo
# assay-setup: 30 mpk, 6 h
readout-label: Liver ng/mg (6 h)

* CC(C)(C)c1cc(-c2cccc(-c3ccc(C(=O)N4CCC(O)CC4)cc3Cl)c2)ccn1 | >1000 ng/mg
* CC1(O)CCN(C(=O)c2ccc(-c3cncc(-c4ccnc(C(C)(C)C)c4)c3)c(Cl)c2)CC1 | >1000 ng/mg
* CC(C)OC(=O)Nc1ccc(-c2cncc(-c3ccnc(C(C)(C)C)c3)c2)c(Cl)c1 | >1000 ng/mg
* CC(C)(C)c1cc(-c2cncc(-c3ccc(C(=O)N4CCC(O)CC4)cc3Cl)c2)ccn1 | 100 to 1000 ng/mg
* CC(C)(C)c1cc(-c2cncc(-c3c(Cl)cc(C(=O)N4CCC(O)CC4)cc3Cl)c2)ccn1 | >1000 ng/mg
* Cc1cc(C(=O)N2CCC(O)CC2)ccc1-c1cncc(-c2ccnc(C(C)(C)C)c2)c1 | 100 to 1000 ng/mg

---

# measurement-protocol: In vivo pharmacokinetic properties in rats (IV and PO)
# Parameters: species or system male Sprague Dawley rats
# assay-setup: PO, 10 mg/kg
readout-label: Oral Administration (PO) AUC0-last

* CC(C)(C)c1cc(-c2cncc(-c3c(Cl)cc(C(=O)N4CCC(O)CC4)cc3Cl)c2)ccn1 | 5387
* CC(C)(C)c1cc(-c2cccc(-c3ccc(C(=O)N4CCC(O)CC4)cc3Cl)c2)ccn1 | 1058
* CC1(O)CCN(C(=O)c2ccc(-c3cncc(-c4ccnc(C(C)(C)C)c4)c3)c(Cl)c2)CC1 | 2989
* CC(C)OC(=O)Nc1ccc(-c2cncc(-c3ccnc(C(C)(C)C)c3)c2)c(Cl)c1 | 604
* Cc1cc(C(=O)N2CCC(O)CC2)ccc1-c1cncc(-c2ccnc(C(C)(C)C)c2)c1 | 3992
* CC(C)(C)c1cc(-c2cncc(-c3ccc(C(=O)N4CCC(O)CC4)cc3Cl)c2)ccn1 | 1307

---

# measurement-protocol: In vivo pharmacokinetic properties in rats (IV and PO)
# Design: species or system male Sprague Dawley rats
# assay-setup: male, Sprague Dawley, rat, plasma, PO 10 mg/kg vs IV 2 mg/kg, read-out: % F (Bioavailability of oral delivery)
Parameter bioavailability: see the listing below.
readout-label: bioavailability (%)

- O=C(c1ccc(-c2cncc(-c3ccnc4c3OCCO4)c2)c(Cl)c1)N1CCC(O)CC1: 2.1
- CC(C)(C)c1cc(-c2cncc(-c3ccc(C(=O)N4CCC(O)CC4)cc3)c2F)ccn1: 2.8
- CC(C)(C)c1cc(-c2cncc(-c3ccc(NS(C)(=O)=O)cc3Cl)c2)ccn1: 8.3
- CC(C)(O)c1cc(-c2cncc(-c3ccc(C(=O)N4CCC(O)CC4)cc3Cl)c2)ccn1: 38

---

# measurement-protocol: Plasma and liver compound levels in mice after oral administration
# Assay type: in vivo
# assay-setup: mouse, liver, 30 mg/kg, 30 mpk, 24 h, read-out: Liver ng/mg 24 h
readout-label: concentration at 24 h

• CC(C)(O)c1cc(-c2cncc(-c3ccc(C(=O)N4CCC(O)CC4)cc3Cl)c2)ccn1 = < 100000 ng/g
• O=C(c1ccc(-c2cncc(-c3ccnc4c3OCCO4)c2)c(Cl)c1)N1CCC(O)CC1 = > 1e+06 ng/g

---

Parameter half-life at 1 µM: see the listing below.
# measurement-protocol: Half-life in mouse liver microsomes
# Assay type: in vitro ADME
# assay-setup: mouse, liver microsomes, read-out: H: half-life of mouse liver microsomes
readout-label: half-life at 1 µM (min)

- CC(C)OC(=O)Nc1ccc(-c2cncc(-c3ccnc(C4OCCO4)c3)c2)c(Cl)c1 [drawing 371]: 19.2
- Cc1c(-c2ccnc(C(C)(C)C)c2)cncc1-c1ccc(C(=O)N2CCC(O)CC2)cc1Cl: 19.5
- Cc1cc(C(=O)N2CCC(O)CC2)ccc1-c1cncc(-c2ccnc(C(C)(C)C)c2)c1 [drawing 337]: 213
- CC(C)(O)c1cc(-c2cncc(-c3ccc(C(=O)N4CCC(O)CC4)cc3Cl)c2)ccn1 [drawing 356]: 2920
- CC(C)(C)c1cc(-c2cccc(-c3ccc(NS(C)(=O)=O)cc3Cl)c2)ccn1: 110
- O=C(c1ccc(-c2cncc(-c3ccnc(C4CC4)c3)c2)c(Cl)c1)N1CCC(F)CC1: 12.4
- CC(C)OC(=O)Nc1ccc(-c2cncc(-c3ccnc(C4CC4)c3)c2)c(Cl)c1: 81.1
- CC(C)(C)c1cc(-c2cncc(-c3ccc(C(=O)N4CCC(O)C(F)C4)cc3Cl)c2)ccn1 (centres unmarked): 98.5
- CC1(O)CCCN(C(=O)c2ccc(-c3cncc(-c4ccnc(C(C)(C)C)c4)c3)c(Cl)c2)C1 (centres unmarked) [drawing 366]: 11.4
- CC(C)OC(=O)Nc1ccc(-c2cncc(-c3ccnc(C4(F)CCC4)c3)c2)c(Cl)c1: 97.9
- CC(C)(C)c1cc(-c2cncc(-c3ccc(C(=O)N4CC5C(O)C5C4)cc3Cl)c2)ccn1 (centres unmarked): 20
- Cc1cc(S(=O)(=O)NC(C)C)ccc1-c1cncc(-c2ccnc(C(C)(C)C)c2)c1: 177
- CC1(O)CCC(C(=O)c2ccc(-c3cncc(-c4ccnc(C(C)(C)CO)c4)c3)c(Cl)c2)CC1 (centres unmarked): 63.6
- CC(C)(O)c1cc(-c2cncc(-c3ccc(NS(C)(=O)=O)cc3Cl)c2)ccn1: 120
- CC(C)(CNC(=O)c1ccc(-c2cncc(-c3ccnc(C(C)(C)C)c3)c2)c(Cl)c1)C(=O)O: 9.75
- CC(C)(C)c1cc(-c2cncc(-c3ccc(C(=O)N4CC(O)C(O)C4)cc3Cl)c2)ccn1 (centres unmarked): 75.6
- CC(C)(C)c1cc(-c2cncc(-c3ccc(C(=O)N4CC[C@H](O)C4)cc3Cl)c2)ccn1: 38.7
- Cc1c(-c2ccnc(C(C)(C)C)c2)cncc1-c1ccc(C(=O)N2CCCC(O)C2)cc1Cl (centres unmarked): 25.5
- CC(C)(C)c1cc(-c2cccc(-c3ccc(NC(=O)N4CCC(O)CC4)cc3Cl)c2)ccn1: 400
- CC(C)(C)c1cc(-c2cncc(-c3ccc(C(=O)N(CCCO)CCCO)cc3Cl)c2)ccn1: 40.4
- O=C(c1ccc(-c2cncc(-c3ccnc(C4(F)CCC4)c3)c2)c(Cl)c1)N1CCC(O)CC1: 54.4
- CC(C)(C)c1cc(-c2cncc(-c3ccc(C(=O)N4CC[C@@H](O)C4)cc3Cl)c2)ccn1: 31.5
- CC(C)(C)c1cc(-c2cncc(-c3ccc(C(=O)N4C[C@@H](O)[C@@H](O)C4)cc3Cl)c2)ccn1: 36.2
- CC(C)(C)c1cc(-c2cncc(-c3ccc(C(=O)N4CC(O)C4)cc3Cl)c2)ccn1: 38.3
- CC(C)(C)c1cc(-c2cncc(-c3ccc(C(=O)N4CCC(O)CC4)cc3Cl)c2)ccn1 [drawing 378]: 80.1
- CC(C)(C)c1cc(-c2cccc(-c3ccc(C(=O)N4CCC(O)CC4)cc3Cl)c2)ccn1 [drawing 377]: 89.9
- CC1(O)CCN(C(=O)c2ccc(-c3cncc(-c4ccnc(C(C)(C)C)c4)c3)c(Cl)c2)CC1 [drawing 369]: 30.3
- CC(C)(C)c1cc(-c2cncc(-c3ccc(NC(=O)OC4CCC(O)CC4)cc3Cl)c2)ccn1 (centres unmarked): 120
- CC(C)(C)c1cc(-c2cncc(-c3ccc(C(=O)N4CCC4C(C)(C)O)cc3Cl)c2)ccn1 (centres unmarked): 38.3
- CC(C)(C)c1cc(-c2cncc(-c3ccc(C(=O)N4CCC[C@H]4CO)cc3Cl)c2)ccn1: 28.6
- CC(C)(C)c1cc(-c2cc(-c3ccc(C(=O)N4CCC(O)CC4)cc3Cl)cc3cnccc23)ccn1: 33.8
- O=C(c1ccc(-c2cncc(-c3ccnc(C4CC4)c3)c2)c(Cl)c1)N1CCC(F)C(O)C1 (centres unmarked): 68.3
- CN(C)c1cc(-c2ccnc(C(C)(C)C)c2)cc(-c2ccc(C(=O)N3CCC(O)CC3)cc2Cl)c1: 13.6
- COC1CCCN(C(=O)c2ccc(-c3cncc(-c4ccnc(C(C)(C)C)c4)c3)c(Cl)c2)C1 (centres unmarked) [drawing 375]: 8.98
- CC(C)(C)c1cc(-c2cncc(-c3ccc(C(=O)N4CC5(CC(O)C5)C4)cc3Cl)c2)ccn1: 120
